Values were extracted from the supplement of paper PMC6555819.

# Tested on: RARa:RXR (NR concentration 270 nM, RXRa partner concentration 90 nM)
# ASSAY PROCEDURE: PBM binding z-score (relative to random genomic background probes); higher = stronger binding; sequences stand for … in GC…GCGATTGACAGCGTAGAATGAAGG
Kindly supply the reported PBM binding z-score values for the records listed here.
Give bare numbers.

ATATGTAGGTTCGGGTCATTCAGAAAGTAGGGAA 3.97

Give me PBM binding z-score for each of these sequences, listed below.
1. TCGAGTAGGTTATGGGGGCATTCAGGGATGAAGA
2. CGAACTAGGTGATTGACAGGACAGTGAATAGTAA
3. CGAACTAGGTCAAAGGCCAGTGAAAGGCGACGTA
4. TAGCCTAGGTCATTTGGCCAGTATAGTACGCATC
5. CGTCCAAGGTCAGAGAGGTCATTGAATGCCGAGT

[2.72, 0.0788, 3.18, 2.08, 6.68]

Give me PBM binding z-score for each of these sequences, listed below.
1. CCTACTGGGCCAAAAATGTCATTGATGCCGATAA
2. ACTAGCAGGCCAAAGGTCACTCAAGATTAGTCCG
3. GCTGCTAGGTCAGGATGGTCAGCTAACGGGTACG
4. CAAACTAGGTCAAAGGACAGTGAAAGGCGACGTA
5. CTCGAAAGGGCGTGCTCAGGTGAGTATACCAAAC

[-0.612, 5.72, 0.555, 2.48, 0.278]

Give me PBM binding z-score for each of these sequences, listed below.
1. CCGAGTAGGTTACGAGGAGGCATTCAGTGCGAAT
2. CGAACTAGGTGAAAGGACAGTGAAAGGCGACGTA
3. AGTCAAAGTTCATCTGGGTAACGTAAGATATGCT
4. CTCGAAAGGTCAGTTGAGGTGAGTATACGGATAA
5. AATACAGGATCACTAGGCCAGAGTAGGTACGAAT

[0.244, -0.0573, 3.69, 5.08, -0.456]

Give me PBM binding z-score for each of these sequences, listed below.
1. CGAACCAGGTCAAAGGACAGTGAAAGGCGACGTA
2. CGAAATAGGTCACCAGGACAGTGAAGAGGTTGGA
3. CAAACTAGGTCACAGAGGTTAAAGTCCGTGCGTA
4. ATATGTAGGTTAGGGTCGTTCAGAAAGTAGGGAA
5. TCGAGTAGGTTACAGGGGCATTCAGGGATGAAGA
6. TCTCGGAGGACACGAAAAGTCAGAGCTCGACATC
7. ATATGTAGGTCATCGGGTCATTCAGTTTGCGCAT
8. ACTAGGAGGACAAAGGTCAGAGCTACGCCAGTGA

1: 2.82; 2: 3.82; 3: 4.65; 4: 2.37; 5: 1.5; 6: 0.141; 7: 6.32; 8: 5.08

Give me PBM binding z-score for each of these sequences, listed below.
1. CCTTACGGGTCTAGGTTATAGCACGGGTGGTACG
2. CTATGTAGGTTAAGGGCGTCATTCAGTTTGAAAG

1. 0.0446
2. 0.584

----------
# System: PPARa:RXRa (NR concentration 270 nM, RXRa partner concentration 90 nM)
# ASSAY PROCEDURE: PBM binding z-score (relative to random genomic background probes); higher = stronger binding; sequences stand for … in GC…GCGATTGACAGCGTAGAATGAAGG
Kindly supply the reported PBM binding z-score values for the records listed here.
Numbers only.

See these solved cases before continuing.
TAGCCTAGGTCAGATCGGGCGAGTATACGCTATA 1.58
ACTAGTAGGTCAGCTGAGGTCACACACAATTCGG 5.36
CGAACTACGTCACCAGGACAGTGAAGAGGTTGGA -0.258
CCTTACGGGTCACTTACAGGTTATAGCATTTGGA 4.62
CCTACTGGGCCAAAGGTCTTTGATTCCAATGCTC 4.15

Give me PBM binding z-score for each of these sequences, listed below.
1. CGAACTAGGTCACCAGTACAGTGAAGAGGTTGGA
2. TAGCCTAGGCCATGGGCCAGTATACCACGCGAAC

1: 4.77; 2: -0.56
